Answer each item with its documented EC50.
- target: full-length HAQ STING (Homo sapiens (Human), UniProt Q86WV6, G230A/H232R/R293Q/R71H)
- Sequence (Q86WV6 other isoform, or with tags, fused parts or gaps, stated change not applied): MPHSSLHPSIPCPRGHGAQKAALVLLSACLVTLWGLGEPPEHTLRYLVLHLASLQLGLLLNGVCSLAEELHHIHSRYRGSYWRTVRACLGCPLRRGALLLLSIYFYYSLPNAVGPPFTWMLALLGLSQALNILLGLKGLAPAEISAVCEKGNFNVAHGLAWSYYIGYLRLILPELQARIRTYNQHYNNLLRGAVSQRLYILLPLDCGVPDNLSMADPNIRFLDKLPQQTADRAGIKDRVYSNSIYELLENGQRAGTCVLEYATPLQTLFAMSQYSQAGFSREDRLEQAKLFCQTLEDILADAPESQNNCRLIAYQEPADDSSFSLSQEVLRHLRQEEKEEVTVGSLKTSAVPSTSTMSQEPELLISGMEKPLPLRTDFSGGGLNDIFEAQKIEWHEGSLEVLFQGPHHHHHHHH
- assay.details: 3H-cGAMP filtration binding assay (HAQ STING)
- test.parameters: competition with tritiated cGAMP, HAQ STING membrane; read-out: EC50 (nM), 3H-cGAMP filtration binding assay for HAQ STING
Give bare numbers, in nM.

- [N-]=[N+]=N[C@H]1[C@H]2OP(=O)(O)OC[C@H]3O[C@@H](n4cnc5c(O)ncnc54)[C@H](O)[C@@H]3OP(=O)(O)OC[C@H]1O[C@H]2n1cnc2c(=O)[nH]c(N)nc21: 2.3

Record EC50 for all entries; do not skip any.
1. Nc1ncnc2c1ncn2[C@@H]1O[C@@H]2COP(=O)(O)O[C@@H]3[C@H](O)[C@@H](COP(=O)(O)O[C@H]2[C@H]1O)O[C@H]3n1ncc2c(=O)[nH]cnc21
2. Nc1nc2c(ncn2[C@@H]2O[C@@H]3COP(=O)(O)O[C@H]4[C@H](Cl)[C@H](n5cnc6c(N)ncnc65)O[C@@H]4COP(=O)(O)O[C@@H]2[C@@H]3O)c(=O)[nH]1
3. Nc1nc2c(ncn2[C@@H]2O[C@@H]3COP(=O)(O)O[C@H]4C[C@H](n5cnc6c(=O)[nH]cnc65)O[C@@H]4COP(=O)(O)O[C@@H]2C3)c(=O)[nH]1

Resp:
1: 117; 2: 378; 3: 211
